Some molecules, each annotated with its measured GI50.
# Tested on: UACC-62 melanoma
# Assay Procedure: NCI tumour cell line growth inhibition, 48 h

Worked examples, 3 molecules total:
substance_smiles=CC1(C)N=C(N)N=C(N)N1c1ccc(CCC(=O)Nc2cccc(S(=O)(=O)F)c2)cc1 result="5.3 µM"
substance_smiles=CSc1nc(-c2cccc(NC(=O)CCl)c2)c(C#N)c(=O)n1C result="1.5 µM"
substance_smiles=COC(=O)[C@]1(C)CC[C@]2(C)CC[C@]3(C)C(=CC(=O)[C@@H]4[C@@]5(C)CCC(=O)NC(C)(C)[C@@H]5CC[C@]43C)[C@@H]2C1 result="15.3 µM"

Next molecule, GI50 to be filled in.
Query string: Query (molecule): NC(N)=N/N=C/c1ccc(Br)cc1 ; field requested: GI50
Result string: 5.36 µM
